The measurements presented in this section are drawn from patent US20260092071A1.

The reader will find reported Dmax values listed item by item below.
# TARGET_OR_TEST_SYSTEM: UniProt P51532
# Sequence (P51532 whole entry): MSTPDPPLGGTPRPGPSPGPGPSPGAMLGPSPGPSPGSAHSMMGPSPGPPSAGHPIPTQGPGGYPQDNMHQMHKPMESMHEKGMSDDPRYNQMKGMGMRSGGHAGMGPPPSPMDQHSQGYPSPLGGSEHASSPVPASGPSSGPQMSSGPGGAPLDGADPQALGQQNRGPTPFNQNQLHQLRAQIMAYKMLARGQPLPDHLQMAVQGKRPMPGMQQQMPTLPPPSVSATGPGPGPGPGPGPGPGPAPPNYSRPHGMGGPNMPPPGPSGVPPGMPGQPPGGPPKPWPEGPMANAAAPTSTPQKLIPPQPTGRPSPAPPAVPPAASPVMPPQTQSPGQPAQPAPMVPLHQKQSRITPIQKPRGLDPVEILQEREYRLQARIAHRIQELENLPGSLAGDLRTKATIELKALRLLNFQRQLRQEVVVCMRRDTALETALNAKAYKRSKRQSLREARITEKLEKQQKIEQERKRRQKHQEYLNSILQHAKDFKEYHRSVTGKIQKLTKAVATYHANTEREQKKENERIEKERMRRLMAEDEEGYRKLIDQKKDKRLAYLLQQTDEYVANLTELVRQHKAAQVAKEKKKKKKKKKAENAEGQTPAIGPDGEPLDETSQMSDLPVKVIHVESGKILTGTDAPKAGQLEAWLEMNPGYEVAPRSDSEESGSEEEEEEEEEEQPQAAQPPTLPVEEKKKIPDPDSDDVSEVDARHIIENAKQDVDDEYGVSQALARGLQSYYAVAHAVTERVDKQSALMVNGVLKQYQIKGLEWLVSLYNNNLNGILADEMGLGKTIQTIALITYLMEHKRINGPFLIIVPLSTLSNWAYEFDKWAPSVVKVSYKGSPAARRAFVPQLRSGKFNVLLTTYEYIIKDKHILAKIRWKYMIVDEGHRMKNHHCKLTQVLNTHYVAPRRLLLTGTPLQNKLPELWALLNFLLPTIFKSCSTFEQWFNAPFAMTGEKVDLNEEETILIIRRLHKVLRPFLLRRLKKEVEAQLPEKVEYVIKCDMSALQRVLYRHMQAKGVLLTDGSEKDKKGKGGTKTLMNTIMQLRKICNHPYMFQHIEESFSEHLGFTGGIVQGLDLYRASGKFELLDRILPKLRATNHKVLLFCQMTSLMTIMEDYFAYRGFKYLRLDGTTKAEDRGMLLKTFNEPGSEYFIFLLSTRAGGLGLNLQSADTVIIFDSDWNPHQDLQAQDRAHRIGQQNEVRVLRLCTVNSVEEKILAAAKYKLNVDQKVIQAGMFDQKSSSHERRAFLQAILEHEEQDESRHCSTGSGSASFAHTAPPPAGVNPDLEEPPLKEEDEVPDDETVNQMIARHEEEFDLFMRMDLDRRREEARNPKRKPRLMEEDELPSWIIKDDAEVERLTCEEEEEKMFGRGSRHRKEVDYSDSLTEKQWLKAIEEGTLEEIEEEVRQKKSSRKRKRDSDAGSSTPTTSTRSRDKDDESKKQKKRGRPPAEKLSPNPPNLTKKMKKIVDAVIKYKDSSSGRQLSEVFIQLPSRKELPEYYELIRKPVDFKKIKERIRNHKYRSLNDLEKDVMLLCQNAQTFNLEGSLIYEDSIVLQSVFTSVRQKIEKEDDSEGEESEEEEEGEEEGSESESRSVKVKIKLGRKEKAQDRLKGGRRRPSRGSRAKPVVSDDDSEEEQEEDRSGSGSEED
# METHOD_NOTES: HiBiT assay for protein degradation, Hela SMARCA4-HiBiT cells (A series)
# Type: cell-based
# Design: fuse HiBiT to the carboxy terminus of SMARCA2 (Promega CS302365) or SMARCA4 (Promega CS3023225); host or cells: HeLa (CRISPR/Cas9 HiBiT knock-in)
# CONDITION_DETAILS: Hela SMARCA4-HiBiT cells, 24 hours treatment; read-out: SMARC A4 Hela HiBit Dmax(%)

Known Dmax results, listed for orientation:
Cc1ncsc1-c1ccc([C@H](CN2CCS(=O)(=O)CC2)NC(=O)[C@@H]2C[C@@H](O)CN2C(=O)[C@@H](n2cc([C@H]3CC[C@H](CN4CCC(c5ccc6c(c5)-n5c(nc(=O)c7c(Cl)cccc75)C65CCCCC5)CC4)CC3)nn2)C(C)(C)C)cc1 [Compound A72] ... < 50%
Cc1ncsc1-c1ccc([C@H](CCCCCN2CCC(c3ccc4c(c3)C3(CCCC3)c3nc(=O)c5c(Cl)cccc5n3-4)CC2)NC(=O)[C@@H]2C[C@@H](O)CN2C(=O)[C@@H](NC(=O)C2(F)CC2)C(C)(C)C)cc1 [Compound A2] ... 70 to 90%
Cc1ncsc1-c1ccc([C@H](CCCCCN2CCC(c3ccc4c(c3)C3(CCCCC3)c3nc(=O)c5c(Br)cccc5n3-4)CC2)NC(=O)[C@H]2C[C@H](O)CN2C(=O)[C@@H](n2cc(C3CC3)nn2)C(C)(C)C)cc1 [Compound A35] ... > 90%

Let's switch to this molecule now.
Data point: Cc1ncsc1-c1ccc([C@H](CN2CC(C)(O)C2)NC(=O)[C@@H]2C[C@@H](O)CN2C(=O)[C@@H](n2cc([C@H]3CC[C@H](CN4CCC(c5ccc6c(c5)-n5c(nc(=O)c7c(Cl)cccc75)C65CCCCC5)CC4)CC3)nn2)C(C)(C)C)cc1 [Compound A71] ; Dmax = 50 to 69%

###

The reader will find reported DC50 values listed item by item below.
# TARGET_OR_TEST_SYSTEM: SMARCA2 (Homo sapiens)
# Sequence (P51531 whole entry): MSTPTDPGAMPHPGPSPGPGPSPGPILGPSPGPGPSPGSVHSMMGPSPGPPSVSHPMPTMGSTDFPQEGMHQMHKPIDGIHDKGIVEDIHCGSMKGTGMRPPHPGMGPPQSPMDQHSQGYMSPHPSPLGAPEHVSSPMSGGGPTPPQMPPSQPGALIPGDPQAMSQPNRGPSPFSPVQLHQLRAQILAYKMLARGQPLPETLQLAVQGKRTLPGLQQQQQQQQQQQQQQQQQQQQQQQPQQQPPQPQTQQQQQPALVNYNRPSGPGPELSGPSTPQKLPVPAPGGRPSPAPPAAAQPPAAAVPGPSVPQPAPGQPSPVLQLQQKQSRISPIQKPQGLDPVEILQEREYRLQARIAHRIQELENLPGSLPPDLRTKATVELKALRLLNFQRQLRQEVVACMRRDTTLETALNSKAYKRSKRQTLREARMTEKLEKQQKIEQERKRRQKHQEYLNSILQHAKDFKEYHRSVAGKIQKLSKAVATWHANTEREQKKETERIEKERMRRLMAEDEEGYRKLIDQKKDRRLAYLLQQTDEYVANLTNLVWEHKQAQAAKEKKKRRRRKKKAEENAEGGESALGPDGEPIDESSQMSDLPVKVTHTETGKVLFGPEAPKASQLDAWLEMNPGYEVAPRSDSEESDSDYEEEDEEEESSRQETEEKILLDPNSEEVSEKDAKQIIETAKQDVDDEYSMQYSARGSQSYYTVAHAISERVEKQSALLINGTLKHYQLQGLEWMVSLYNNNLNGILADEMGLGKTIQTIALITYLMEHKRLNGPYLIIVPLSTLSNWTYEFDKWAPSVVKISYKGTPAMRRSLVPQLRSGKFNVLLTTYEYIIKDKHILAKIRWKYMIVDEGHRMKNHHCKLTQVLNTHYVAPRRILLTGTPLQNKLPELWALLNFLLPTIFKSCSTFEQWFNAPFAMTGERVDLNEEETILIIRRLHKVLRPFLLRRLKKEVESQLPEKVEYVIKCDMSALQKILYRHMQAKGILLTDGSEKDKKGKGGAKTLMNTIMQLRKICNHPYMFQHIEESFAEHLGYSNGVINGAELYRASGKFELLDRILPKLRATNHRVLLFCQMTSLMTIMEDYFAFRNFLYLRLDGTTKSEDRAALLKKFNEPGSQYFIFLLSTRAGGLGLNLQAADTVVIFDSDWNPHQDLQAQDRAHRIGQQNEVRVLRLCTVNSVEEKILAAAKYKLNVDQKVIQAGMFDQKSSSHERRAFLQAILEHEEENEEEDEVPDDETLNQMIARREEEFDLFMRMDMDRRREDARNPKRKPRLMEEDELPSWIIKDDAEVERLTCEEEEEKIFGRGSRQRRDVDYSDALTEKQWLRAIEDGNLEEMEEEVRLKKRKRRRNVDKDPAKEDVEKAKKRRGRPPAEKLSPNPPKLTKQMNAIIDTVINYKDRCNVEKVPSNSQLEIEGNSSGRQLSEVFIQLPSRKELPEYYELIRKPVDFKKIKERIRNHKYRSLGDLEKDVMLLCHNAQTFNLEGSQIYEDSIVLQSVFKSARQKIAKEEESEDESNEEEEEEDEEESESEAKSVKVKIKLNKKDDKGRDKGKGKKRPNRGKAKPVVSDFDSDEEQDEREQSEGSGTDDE
# METHOD_NOTES: HiBit assay in engineered HT1080 CRISPR knock-in cell, 6 hrs (B series), SMARCA2
# Type: cell-based
# CONDITION_DETAILS: HT1080 CRISPR knock-in cells, 6 hrs incubation; read-out: SMARC A2 HT1080 HiBit DC50

Known DC50 results, listed for orientation:
Cc1ncsc1-c1ccc([C@H](C)NC(=O)[C@@H]2C[C@@H](O)CN2C(=O)[C@@H](NC(=O)CC2CCC(N3CCC(c4ccc5c(c4)-n4c(nc(=O)c6c(Cl)cccc64)C5(C)C)CC3)CC2)C(C)(C)C)cc1 (stereo partly shown) [Compound B63] ... < 100 nM
Cc1ncsc1-c1ccc([C@H](C)NC(=O)[C@@H]2C[C@@H](O)CN2C(=O)[C@@H](NC(=O)C23CCC(CN4CCC(c5ccc6c(c5)C(C)(C)c5nc(=O)c7c(Cl)cccc7n5-6)CC4)(CC2)C3)C(C)(C)C)cc1 [Compound B18] ... < 100 nM
Cc1ncsc1-c1ccc([C@H](CN2CCOCC2)NC(=O)[C@@H]2C[C@@H](O)CN2C(=O)[C@@H](c2cc(O[C@H]3CC[C@H](CN4CCN(c5ccc6c(c5)-n5c(nc(=O)c7c(Cl)cccc75)C65CCCCC5)CC4)CC3)no2)C(C)C)cc1 [Compound B138] ... < 100 nM

Let's switch to this compound now.
Data point: Cc1ncsc1-c1ccc([C@H](CC(=O)NC2CCC(N3CCC(c4ccc5c(c4)-n4c(nc(=O)c6c(Cl)cccc64)C5(C)C)CC3)CC2)NC(=O)[C@@H]2C[C@@H](O)CN2C(=O)[C@@H](NC(=O)C2(F)CC2)C(C)(C)C)cc1 (stereo partly shown) [Compound B31] ; DC50 = 100 to 500 nM

###

# TARGET_OR_TEST_SYSTEM: UniProt:P51531
# METHOD_NOTES: HiBit assay in engineered HT1080 CRISPR knock-in cell, 6 hrs (B series), SMARCA2
# Format: cell-based
# CONDITION_DETAILS: HT1080 CRISPR knock-in cells, 6 hrs incubation; read-out: SMARC A2 HT1080 HiBit DC50
The reader will find reported DC50 values listed item by item below.

Known DC50 results, listed for orientation:
Cc1nc(C)c(-c2ccc([C@H](C)NC(=O)[C@@H]3C[C@@H](O)CN3C(=O)[C@@H](n3cc([C@H]4CC[C@H](CN5CCC(c6ccc7c(c6)-n6c(nc(=O)c8c(Cl)cccc86)C7(C)C)CC5)CC4)nn3)C(C)(C)C)cc2)s1 ... < 100 nM
Cc1ncsc1-c1ccc([C@H](C)NC(=O)[C@@H]2C[C@@H](O)CN2C(=O)[C@H](C(C)C)n2cc([C@H]3CC[C@H](CN4CCC(c5ccc6c(c5)-n5c(nc(=O)c7c(Cl)cccc75)C6(C)C)CC4)CC3)nn2)cc1 ... < 100 nM
Cc1ncsc1-c1ccc([C@H](C)NC(=O)[C@@H]2C[C@@H](O)CN2C(=O)[C@@H](NC(=O)CN2CCC(c3ccc4c(c3)C(C)(C)c3nc(=O)c5c(Cl)cccc5n3-4)CC2)C(C)(C)C)cc1 ... < 100 nM
Cc1ncsc1-c1ccc([C@H](C)NC(=O)[C@@H]2C[C@@H](O)CN2C(=O)[C@@H](c2cc(OC3CCC(CN4CCC(c5ccc6c(c5)C(C)(C)c5nc(=O)c7c(Cl)cccc7n5-6)CC4)CC3)no2)C(C)C)cc1 (stereo partly drawn) ... < 100 nM
Cc1cc(C(C(=O)N2C[C@H](O)C[C@H]2C(=O)N[C@@H](CCCCCN2CCC(c3ccc4c(c3)C(C)(C)c3nc(=O)c5c(Cl)cccc5n3-4)CC2)c2ccc(-c3scnc3C)cc2)C(C)C)on1 (stereo partly drawn) ... < 100 nM
Cc1ncsc1-c1ccc([C@H](C)NC(=O)[C@@H]2C[C@@H](O)CN2C(=O)[C@@H](c2cc(N3CCC(CN4CCN(c5ccc6c(c5)-n5c(nc(=O)c7c(Cl)cccc75)C6(C)C)CC4)CC3)no2)C(C)C)cc1 ... < 100 nM
Cc1ncsc1-c1ccc([C@H](C)NC(=O)[C@@H]2C[C@@H](O)CN2C(=O)[C@H](C(C)C)n2cc([C@H]3CC[C@H](CN4CCN(c5ccc6c(c5)-n5c(nc(=O)c7c(Cl)cccc75)C6(C)C)CC4)CC3)nn2)cc1 ... < 100 nM
Cc1ncsc1-c1ccc([C@H](C)NC(=O)[C@@H]2C[C@@H](O)CN2C(=O)[C@@H](NC(=O)c2ccc(CN3CCC(c4ccc5c(c4)C(C)(C)c4nc(=O)c6c(Cl)cccc6n4-5)CC3)s2)C(C)(C)C)cc1 ... < 100 nM

Data point: Cc1ncoc1-c1ccc([C@H](C)NC(=O)[C@@H]2C[C@@H](O)CN2C(=O)[C@@H](n2cc([C@H]3CC[C@H](CN4CCN(c5ccc6c(c5)-n5c(nc(=O)c7c(Cl)cccc75)C6(C)C)CC4)CC3)nn2)C(C)(C)C)cc1 ; DC50 = < 100 nM

###

The reader will find reported Dmax values listed item by item below.
# TARGET_OR_TEST_SYSTEM: SMARCA2 (Homo sapiens)
# METHOD_NOTES: HiBit assay in engineered HT1080 CRISPR knock-in cell, 6 hrs (B series), SMARCA2
# Type: cell-based
# CONDITION_DETAILS: HT-1080, HT1080 CRISPR knock-in cells, 6 hrs incubation; read-out: SMARC A2 HT1080 HiBit Dmax (%)

Known Dmax results, listed for orientation:
Cc1ncsc1-c1ccc(C2(NC(=O)[C@@H]3C[C@@H](O)CN3C(=O)[C@@H](n3cc([C@H]4CC[C@H](CN5CCC(c6ccc7c(c6)-n6c(nc(=O)c8c(Cl)cccc86)C7(C)C)CC5)CC4)nn3)C(C)(C)C)CN(C)C2)cc1 ... 70 to 90%
Cc1ncsc1-c1ccc(CNC(=O)[C@@H]2C[C@@H](O)CN2C(=O)[C@@H](NC(=O)C2(F)CC2)C(C)(C)C)c(OCCCN2CCC(c3ccc4c(c3)-n3c(nc(=O)c5c(Cl)cccc53)C4(C)C)CC2)c1 ... > 90%
Cc1ncsc1-c1ccc2c(c1)CC[C@@H]2NC(=O)[C@@H]1C[C@@H](O)CN1C(=O)[C@@H](n1cc([C@H]2CC[C@H](CN3CCC(c4ccc5c(c4)-n4c(nc(=O)c6c(Cl)cccc64)C5(C)C)CC3)CC2)nn1)C(C)(C)C ... 70 to 90%

Let's switch to this molecule now.
Data point: Cc1ncsc1-c1ccc(C(CN2CCOCC2)NC(=O)[C@@H]2C[C@@H](O)CN2C(=O)[C@H](c2cc(N3CCC(CN4CCN(c5ccc6c(c5)-n5c(nc(=O)c7c(Cl)cccc75)C65CCCCC5)CC4)CC3)no2)C(C)C)cc1 (stereo in doubt) ; Dmax = > 90%
